system: human PD-1 (NM_005018.2) over-expressed on cells (human, UniProt Q15116 25-288)
Sequence (Q15116 25-288): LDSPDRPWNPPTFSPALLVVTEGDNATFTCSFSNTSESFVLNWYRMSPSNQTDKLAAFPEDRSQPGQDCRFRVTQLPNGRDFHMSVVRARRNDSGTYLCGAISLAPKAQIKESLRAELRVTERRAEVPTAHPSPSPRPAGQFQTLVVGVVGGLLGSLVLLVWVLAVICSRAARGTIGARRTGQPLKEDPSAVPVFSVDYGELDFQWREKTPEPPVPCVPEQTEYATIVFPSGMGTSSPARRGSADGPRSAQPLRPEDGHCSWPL
assay name: cell-based or functional assay
measure name: EC50 [nM], PD1/PD-L1 blockade bioassay (nM)
Give bare numbers, in nM.

// below: answered binders
Entry PD1-45D6(A/4C9) (antibody, V domains shown) VH: QVQLVESGGGVVQPGRSLRLSCAASGFTFSSYAMHWVRQAPGKGLEWVAVISYDGNDKYYADSVKGRFTISRDNSKNTLYLQMNSLRAEDTAVYYCVPTTFEYWGQGTLVTVSS VL: DIVMTQTPLSLPVTPGEAASISCRSSQSLLDSEDGNTYLDWYLQKPGQSPQLLIYTLSHRASGVPDRFSGSGSGTDFTLKISRVAAEDVGIYYCMQRVEFPFTFGQGTKLEIK — recorded EC50 [nM], PD1/PD-L1 blockade bioassay = 2.72

Recorded result, PD1-49A2(A/1F12) (antibody, V domains shown) VH: QVQLVESGGGVVQPGRSLRLSCAASGFTFRNYAMHWVRQAPGKGLEWVAVISYDGQHKYYADSVKGRFTISRDNSKNTLYLQMNSLRAEDTAVYYCTTTTFDSWSQGTLVTVSS VL: DIVMTQTPHSLPVTPGEPASISCRSSQSLLDSEDGNTYLDWYLQKPGQSPQLLIYTLSHRALGVPDRFSGSGSGTDFTLKISRVEAEDSGIYYCMQRIEFPYTFGQGTKLEIK , EC50 [nM], PD1/PD-L1 blockade bioassay: 1.03

Next item in the queue.
Sample PD1-45D6(A/3D2) (antibody, V domains shown, scFv-phage in the screening ELISA; whole IgG in the other assays; also called 45D6-3D2; PD1 45D6 3D2) VH: QVQLVESGGGVVQPGRSLRLSCAASGFTFSSYAMHWVRQVPGKGLEWVAVISYDGNDKYYADSVKGRFTISRDNSKNTLYLQMNSLRAEDTAVYYCVPTTFEYWGQGSQVTVSS VL: DIVMTQTPLSLPVTPGEAASISCRSSQSLLDSEDGNTYLDWYLQKPGQSPQLLIYTLSHRASGVPDRFSGSGSGTDFTLKISRVEAEDVGIYYCMQRVEFPFTFGQGTKVEIK ; EC50 [nM], PD1/PD-L1 blockade bioassay observed: 2.16
